# Test system: MCF7 breast
# EXPERIMENTAL_PROTOCOL: NCI-60 one-dose screen, 48 h
# CONDITION_NOTES: 10 µM unless noted
About 83,000 compounds went through this panel and 20% of them were active in at least one assay; those are over-represented in the sample as a whole. Active and inactive are the calls of the source. How the source made its calls: active means growth percent below 10; inactive means the rest.
Outcomes: active, inactive

| COMPOUND | TARGET_UNDER_TEST | CLASSIFICATION |
| --- | --- | --- |
| CN1CCN(C(=O)[C@]2(C)CC[C@]3(C)CC[C@]4(C)C(=CC(=O)[C@@H]5[C@@]6(C)CCC(=O)NC(C)(C)[C@@H]6CC[C@]54C)[C@@H]3C2)CC1 | MCF7 breast | inactive |
| O=C(Nc1sc2c(c1C(=O)O)CCCC2)c1cccc(C(F)(F)F)c1 | MCF7 breast | inactive |
| COc1ccc(C(O)c2cc3c(N)c(C(=O)Nc4ccc(Cl)cc4)sc3nc2C)cc1 (stereo not given) | MCF7 breast | inactive |
| CC(=O)CCSc1ccc(OC(C)=O)cc1 | MCF7 breast | inactive |
| COc1cc(CNC(=O)CCCCC[P+](c2ccccc2)(c2ccccc2)c2ccccc2)c(OC)c2c1OCO2 | MCF7 breast | inactive |
| O=C(Nc1ccc2cc3ccc(NC(=O)N4CCCCCC4)cc3nc2c1)N1CCCCCC1 | MCF7 breast | active |
| C=C(C)[C@@H]1CC[C@]2(CO)CC[C@]3(C)[C@H](CC[C@@H]4[C@@]5(C)CCCNC(C)(C)[C@@H]5CC[C@]43C)[C@@H]12 | MCF7 breast | active |
| C/C(=C(/c1ccccc1)c1ccc(OCC(O)CNCCN2CCOCC2)cc1)c1ccccc1 (stereo not given) | MCF7 breast | inactive |
| Fc1ccccc1CSc1ncnc2nc[nH]c12 | MCF7 breast | inactive |
| Cn1c(=O)c2[nH]c(CCCc3nc4c([nH]3)c(=O)n(C)c(=O)n4C)nc2n(C)c1=O | MCF7 breast | inactive |
| COc1cc(C2CC(c3cccc(Nc4ccncc4)c3)=NN2c2ccccc2)cc(OC)c1OC (stereo not given) | MCF7 breast | inactive |
| O=C(Nc1ccccc1)Oc1ccccc1-c1ccccc1 | MCF7 breast | inactive |
| Cc1c([N+](=O)[O-])cc(C(C)(C)C)cc1[N+](=O)[O-] | MCF7 breast | inactive |
| Cc1ccc(C2CC(c3cccc(Nc4ccncc4)c3)=NN2c2cc(Cl)cc(Cl)c2)cc1 (stereo not given) | MCF7 breast | active |
| CCCC1C(C(=O)OCC)=C(N)Oc2cc(O)ccc21 (stereo not given) | MCF7 breast | inactive |
| CCC(=O)c1ccc(O)c(OC)c1 | MCF7 breast | inactive |
| C[C@]12C[C@H]1CC[C@]1(C)[C@@H]2CC[C@@]23C[C@H](CC[C@H]21)[C@@](O)(CO)C3 | MCF7 breast | inactive |
| COc1ccc(/C(C)=N/NC(=O)CSc2nc3ccccc3c(=O)n2Cc2ccc(S(N)(=O)=O)cc2)c(OC)c1 | MCF7 breast | inactive |
| NC(=S)N/N=C(\c1ccc(Cl)cc1)C1CC1 | MCF7 breast | inactive |
| Cc1nccc2c3ccc(OCc4cn(-c5ccc(Cl)cc5)nn4)cc3n(CCCc3ccccc3)c12 | MCF7 breast | inactive |
| CC(=O)c1c[nH]c2ccc(-c3ccnc(Nc4ccc(NC(=O)C5CCCC5)c(CN5CCOCC5)c4)n3)cc12 | MCF7 breast | active |
| CC(C)(O)C1CCCN1C(=O)c1ccccc1I (stereo not given) | MCF7 breast | inactive |
| Cc1c(C(=O)NO)sc2ncnc(Nc3ccc(NC(=S)Nc4ccccc4)cc3)c12 | MCF7 breast | inactive |
| FC(F)(F)Oc1cccc(-c2cc(NCCCCCCNc3cc(-c4cccc(OC(F)(F)F)c4)nc4ccc(N5CCCC5)cc34)c3cc(N4CCCC4)ccc3n2)c1 | MCF7 breast | active |
| COC(=O)C(c1ccccc1)C(CC(=O)c1ccccc1)c1ccccc1 (stereo not given) | MCF7 breast | inactive |
| Cc1ccc(S(=O)(=O)Nc2ccc(Cl)cc2)cc1 | MCF7 breast | inactive |
| N/C(=N\N=C\c1cc2ccccc2s1)N/N=C/c1cc2ccccc2s1 | MCF7 breast | inactive |
| COc1cccc(C(Cc2ccccc2)Nc2ccccc2)c1OC (stereo not given) | MCF7 breast | inactive |
| CC(=O)N1N=C(c2cccc(Nc3ccncc3)c2)CC1c1ccccc1 (stereo not given) | MCF7 breast | inactive |
| CCSc1ccc2c(c1)N(CCCN1CCN(C)CC1)c1ccccc1S2 | MCF7 breast | inactive |
| O=CNc1cc(Cl)cc(Cl)c1 | MCF7 breast | inactive |
| O=C(CSc1nc2sc3c(c2c(=O)n1Cc1ccccc1)CCCC3)N1CCN(c2ccccc2)CC1 | MCF7 breast | inactive |
| FCc1nc2nc(Cl)c(Cl)nc2[nH]1 | MCF7 breast | inactive |
| C#CCn1cc(C=C2C(=O)NC(=S)NC2=O)c2cc(Cl)ccc21 | MCF7 breast | inactive |
| CN1C2CCC1CN(c1cnc(C(=O)Nc3cc(F)cc4cccnc34)cn1)C2 | MCF7 breast | active |
| C=C(C)[C@@H]1CC[C@]2(C(=O)O)CC[C@]3(C)[C@H](CC[C@@H]4[C@@]5(C)C[C@@H](CC#Cc6ccc(Br)cc6)C(=O)C(C)(C)[C@@H]5CC[C@]43C)[C@@H]12 | MCF7 breast | inactive |
| COc1ccc(/C=C(/c2ccccc2)[N+](=O)[O-])cc1 | MCF7 breast | active |
| CC(=O)N1c2ccccc2NC2=C(C(=O)N(C)C2(C)C)C1C (stereo not given) | MCF7 breast | inactive |
| Fc1ccc(C2CC(c3cccc(Nc4ccncc4)c3)=NN2c2ccccc2)cc1 (stereo not given) | MCF7 breast | active |
| Cc1nc2sc(C(=O)Nc3cccc(Br)c3)c(N)c2cc1C(=O)c1ccc(C(F)(F)F)cc1 | MCF7 breast | inactive |
